Data origin, for the record: BindingDB's records for doi:10.1016/0960-894X(96)00231-4

- assay summary: Stimulation of mitogenesis in Dopamine receptor D3 transfected CHO p-5 cells
measurement name: EC50 (µM)

[I] COc1c(C(=O)NCCN2CCN(c3ccccc3Cl)CC2)cc(Br)c2ccccc12
[II] COc1c(C(=O)NCCN2CCN(c3cccc(Cl)c3)CC2)cc(Br)c2ccccc12
**Query** Could you tell me which of these two has the smaller EC50 figure? First: I Second: II Please indicate the selected item by its label.
**Result** II
(II: 0.028 µM, I: 0.083 µM)

* * *

- test system: D(2) dopamine receptor (Rattus norvegicus)
- assay summary: Binding affinity at Dopamine D2 receptors in rat striatum by [3H]spiperone displacement.
pKi: −log10 of the molar value.
measurement name: pKi

[[record]]
mol = "COc1c(C(=O)NCCN2CCN(c3ccccc3)CC2)cc(Br)c2ccccc12"
test_system = "D(2) dopamine receptor (Rattus norvegicus)"
value_measured = 5.72

[[record]]
mol = "COc1c(C(=O)NCCN2CCN(c3ccc(C)cc3)CC2)cc(Br)c2ccccc12"
test_system = "D(2) dopamine receptor (Rattus norvegicus)"
value_measured = 6.00

[[record]]
mol = "COc1c(C(=O)NCCN2CCN(c3cccc([N+](=O)[O-])c3)CC2)cc(Br)c2ccccc12"
test_system = "D(2) dopamine receptor (Rattus norvegicus)"
value_measured = 5.89


[A] COc1c(C(=O)NCCN2CCN(c3ccccc3C)CC2)cc(Br)c2ccccc12
[B] COc1c(C(=O)NCCN2CCN(c3cccc(C)c3C)CC2)cc(Br)c2ccccc12
**Query** API: POST /compare with A and B ; response names the item with higher pKi. Please indicate the selected item by its label.
**Result** A
(A: 6.32, B: 5.93)

[I] COc1c(C(=O)NCCN2CCN(c3ccccc3)CC2)cc(Cl)c2ccccc12
[II] COc1c(C(=O)NCCN2CCN(c3ccccc3Cl)CC2)cc(Br)c2ccccc12
[III] COc1c(C(=O)NCCN2CCN(c3ccc([N+](=O)[O-])cc3)CC2)cc(Br)c2ccccc12
**Query** Hey, can you sort those molecules up there by pKi, smallest first? Enter labels, ranked according to the request.
**Result** III, I, II
(III: 5.24, I: 5.60, II: 6.29)

* * *

- test system: UniProtKB P61169
- Sequence (P61169 whole entry, looked up): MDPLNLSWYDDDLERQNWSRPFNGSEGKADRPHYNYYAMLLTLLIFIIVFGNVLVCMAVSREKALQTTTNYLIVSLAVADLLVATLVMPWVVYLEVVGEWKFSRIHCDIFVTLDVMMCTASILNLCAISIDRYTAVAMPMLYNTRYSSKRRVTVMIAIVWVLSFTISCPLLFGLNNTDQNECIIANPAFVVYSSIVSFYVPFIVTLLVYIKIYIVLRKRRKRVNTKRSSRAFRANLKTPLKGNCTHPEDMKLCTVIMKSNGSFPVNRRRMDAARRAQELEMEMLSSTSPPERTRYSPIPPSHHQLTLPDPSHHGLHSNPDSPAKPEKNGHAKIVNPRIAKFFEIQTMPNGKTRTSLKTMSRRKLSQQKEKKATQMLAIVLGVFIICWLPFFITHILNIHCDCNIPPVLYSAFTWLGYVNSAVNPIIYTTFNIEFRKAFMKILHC
- assay summary: Binding affinity at Dopamine D2 receptors in rat striatum by [3H]spiperone displacement.
pKi: −log10 of the molar value.
measurement name: pKi

Previously resolved entries follow.
[[record]]
mol = "COc1c(C(=O)NCCN2CCN(c3ccccc3)CC2)cc(C#N)c2ccccc12"
value_measured = 7.15

[[record]]
mol = "COc1c(C(=O)NCCN2CCN(c3cccc(C)c3)CC2)cc(Br)c2ccccc12"
value_measured = 5.92

[[record]]
mol = "COc1c(C(=O)NCCN2CCN(c3ccccc3)CC2)ccc2ccccc12"
value_measured = 5.15


[1] COc1cccc(N2CCN(CCNC(=O)c3cc(Br)c4ccccc4c3OC)CC2)c1
[2] COc1ccc(N2CCN(CCNC(=O)c3cc(Br)c4ccccc4c3OC)CC2)cc1
[3] COc1c(C(=O)NCCN2CCN(c3cccc(Cl)c3)CC2)cc(Br)c2ccccc12
[4] COc1c(C(=O)NCCN2CCN(c3ccccc3[N+](=O)[O-])CC2)cc(Br)c2ccccc12
[5] COc1ccccc1N1CCN(CCNC(=O)c2cc(Br)c3ccccc3c2OC)CC1
**Query** Hey, can you sort those compounds up there by pKi, smallest first? Enter labels, ranked according to the request.
**Result** 2, 1, 3, 5, 4
(2: 5.24, 1: 5.89, 3: 6.15, 5: 6.52, 4: 6.82)

* * *

- assay summary: Binding affinity at Dopamine D3 receptors in rat striatum by [3H]-spiperone displacement.
measurement name: Ki (nM)

Previously resolved entries follow.
[[record]]
mol = "COc1c(C(=O)NCCN2CCN(c3cccc(C)c3)CC2)cc(Br)c2ccccc12"
value_measured = 339

[[record]]
mol = "COc1c(C(=O)NCCN2CCN(c3ccccc3)CC2)cc(C#N)c2ccccc12"
value_measured = 131

[[record]]
mol = "COc1c(C(=O)NCCN2CCN(c3ccccc3[N+](=O)[O-])CC2)cc(Br)c2ccccc12"
value_measured = 24


[a] COc1c(C(=O)NCCN2CCN(c3ccc(C)cc3)CC2)cc(Br)c2ccccc12
[b] COc1c(C(=O)NCCN2CCN(c3ccccc3Cl)CC2)cc(Br)c2ccccc12
**Query** Could you tell me which of these two has the smaller Ki figure? First: a Second: b Please indicate the selected item by its label.
**Result** b
(b: 39 nM, a: 260 nM)

[A] COc1c(C(=O)NCCN2CCN(c3cccc([N+](=O)[O-])c3)CC2)cc(Br)c2ccccc12
[B] COc1c(C(=O)NCCN2CCN(c3ccccc3C)CC2)cc(Br)c2ccccc12
[C] COc1c(C(=O)NCCN2CCN(c3ccc(Cl)cc3)CC2)cc(Br)c2ccccc12
**Query** Please give the order of these compounds when sorted by Ki, largest value leading. Enter labels, ranked according to the request.
**Result** A, C, B

[I] COc1cccc(N2CCN(CCNC(=O)c3cc(Br)c4ccccc4c3OC)CC2)c1
[II] COc1c(C(=O)NCCN2CCN(c3ccccc3)CC2)ccc2ccccc12
[III] COc1c(C(=O)NCCN2CCN(c3ccccc3)CC2)cc(Cl)c2ccccc12
[IV] COc1c(C(=O)NCCN2CCN(c3ccccc3)CC2)cc(Br)c2ccccc12
**Query** Hey, can you sort those compounds up there by Ki, smallest first? Enter labels, ranked according to the request.
**Result** IV, III, II, I
(IV: 24 nM, III: 55 nM, II: 270 nM, I: 652 nM)

[I] COc1ccccc1N1CCN(CCNC(=O)c2cc(Br)c3ccccc3c2OC)CC1
[II] CCOc1c(C(=O)NCCN2CCN(c3ccccc3)CC2)cc(Br)c2ccccc12
**Query** API: POST /compare with I and II ; response names the item with higher Ki. Please indicate the selected item by its label.
**Result** II
(II: 267 nM, I: 76 nM)

* * *

- assay summary: Binding affinity at Dopamine D3 receptors in rat striatum by [3H]-spiperone displacement.
pKi: −log10 of the molar value.
measurement name: pKi

[[record]]
mol = "COc1ccc(N2CCN(CCNC(=O)c3cc(Br)c4ccccc4c3OC)CC2)cc1"
measurement_name = "pKi"
value_measured = 6.14

[[record]]
mol = "COc1c(C(=O)NCCN2CCN(c3ccc([N+](=O)[O-])cc3)CC2)cc(Br)c2ccccc12"
measurement_name = "pKi"
value_measured = 6.14

